target: JAK1 kinase (Homo sapiens (Human))
Sequence (P23458 whole entry): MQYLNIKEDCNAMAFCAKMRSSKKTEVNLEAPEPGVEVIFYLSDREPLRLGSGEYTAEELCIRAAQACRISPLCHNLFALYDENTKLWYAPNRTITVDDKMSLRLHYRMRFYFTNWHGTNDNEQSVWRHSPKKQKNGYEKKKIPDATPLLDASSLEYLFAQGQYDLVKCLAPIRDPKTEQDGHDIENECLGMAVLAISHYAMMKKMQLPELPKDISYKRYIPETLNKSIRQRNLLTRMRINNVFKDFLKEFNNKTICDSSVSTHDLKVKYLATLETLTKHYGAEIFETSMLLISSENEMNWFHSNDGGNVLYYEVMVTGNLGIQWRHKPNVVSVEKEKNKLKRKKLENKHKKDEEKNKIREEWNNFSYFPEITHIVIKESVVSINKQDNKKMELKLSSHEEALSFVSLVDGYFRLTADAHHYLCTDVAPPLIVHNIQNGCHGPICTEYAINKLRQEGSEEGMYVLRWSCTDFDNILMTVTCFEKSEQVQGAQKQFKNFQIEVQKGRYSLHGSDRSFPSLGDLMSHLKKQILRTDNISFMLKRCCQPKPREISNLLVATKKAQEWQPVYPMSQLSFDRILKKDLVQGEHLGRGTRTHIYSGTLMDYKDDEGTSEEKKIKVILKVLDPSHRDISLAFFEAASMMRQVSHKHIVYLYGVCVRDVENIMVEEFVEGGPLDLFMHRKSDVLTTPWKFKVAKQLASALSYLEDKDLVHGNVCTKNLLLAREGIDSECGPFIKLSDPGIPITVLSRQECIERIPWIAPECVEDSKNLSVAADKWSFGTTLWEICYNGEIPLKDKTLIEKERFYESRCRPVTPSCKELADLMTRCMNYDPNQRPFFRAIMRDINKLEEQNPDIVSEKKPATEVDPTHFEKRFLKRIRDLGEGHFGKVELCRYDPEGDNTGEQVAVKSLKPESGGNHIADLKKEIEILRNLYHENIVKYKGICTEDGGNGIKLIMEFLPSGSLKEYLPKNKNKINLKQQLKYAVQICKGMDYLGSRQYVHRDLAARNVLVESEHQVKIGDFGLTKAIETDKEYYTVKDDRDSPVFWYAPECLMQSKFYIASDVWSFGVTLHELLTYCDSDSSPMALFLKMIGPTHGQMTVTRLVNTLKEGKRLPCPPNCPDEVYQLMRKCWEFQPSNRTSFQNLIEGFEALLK
assay.name: Biochemical Potency JAK1 (TR-FRET LANCE Ultra kinase assay)
condition.context: ATP corresponding to Km
quantity.measured: Biochemical Potency JAK 1 (pIC50)

- compound: "CN(c1ncnc2[nH]ccc12)C1CCN(c2ccc(C#N)nc2)C1 (stereo not shown) [Example 2]"
  quantity.measured: "Biochemical Potency JAK 1 (pIC50)"
  assay.value: 7.9
- compound: "CN(c1ncnc2[nH]ccc12)[C@@H]1CCN(c2cnc(C#N)nc2)C1 [Example 10]"
  quantity.measured: "Biochemical Potency JAK 1 (pIC50)"
  assay.value: 7.9
- compound: "CCOC(=O)c1cnc2ccsc2c1NC1CCN(c2ccc(C#N)c(F)c2)C1 (stereo not shown) [Example 7]"
  quantity.measured: "Biochemical Potency JAK 1 (pIC50)"
  assay.value: 6
- compound: "N#Cc1ccc(N2CCC(Nc3c(C(N)=O)cnc4ccsc34)C2)cc1F (stereo not shown) [Example 4]"
  quantity.measured: "Biochemical Potency JAK 1 (pIC50)"
  assay.value: 7
- compound: "CN(c1ncnc2[nH]ccc12)[C@@H]1CCN(c2cc(F)ccc2C#N)C1 [Example 9]"
  quantity.measured: "Biochemical Potency JAK 1 (pIC50)"
  assay.value: 7.6
- compound: "CN(c1ncnc2[nH]ccc12)C1CCN(C(C(=O)O)c2ccc(Cl)cc2F)C1 (stereo not shown) [Example 6]"
  quantity.measured: "Biochemical Potency JAK 1 (pIC50)"
  assay.value: 5.3
- compound: "CN(c1ncnc2[nH]ccc12)[C@@H]1CCN(c2ccc(C#N)c(F)c2)C1 [Example 1]"
  quantity.measured: "Biochemical Potency JAK 1 (pIC50)"
  assay.value: 8.6
- compound: "N#Cc1ccc(N2CCC(Nc3c(C(=O)O)cnc4ccsc34)C2)cc1F (stereo not shown) [Example 8]"
  quantity.measured: "Biochemical Potency JAK 1 (pIC50)"
  assay.value: 5.3
- compound: "CN(c1ncnc2[nH]ccc12)[C@@H]1CCN(c2ccc(C(=O)Nc3nccs3)cn2)C1 [Example 3]"
  quantity.measured: "Biochemical Potency JAK 1 (pIC50)"
  assay.value: 7.7
- compound: "COC(=O)C(c1ccc(Cl)cc1F)N1CCC(N(C)c2ncnc3[nH]ccc23)C1 (stereo not shown) [Example 5]"
  quantity.measured: "Biochemical Potency JAK 1 (pIC50)"
  assay.value: 7.6
